assay.target: PDE 4 (phosphodiesterase IV)
protocol.text: PDE 4 inhibiting effect (3H-cAMP hydrolysis, PDE 4 active fraction from Balb/c mouse liver)
Assay type: biochemical
condition.label: PDE 4 fraction from Balb/c mice liver, 0.064 μM cAMP, 2 hours at 25° C.; read-out: PDE4 IC50
pIC50: −log10 of the molar value. Structures can show the parent of a compound that is named as a salt.

{"columns": ["compound", "value.qualifier", "pIC50"],
 "data": [
  ["Cc1nn(C2CCCCC2)c2sc(C(=O)Nc3ccc(N4CCNCC4)cc3)cc12 [Example 72, HCl salt]", "=", 5.92],
  ["Cc1nn(C2CCCCC2)c2sc(C(=O)N[C@H]3CC[C@H](N4CCN(C)CC4=O)CC3)cc12", "=", 5.89],
  ["Cc1nn(C2CCCCC2)c2sc(C(=O)Nc3ccc(N(C)CCO)c(F)c3)cc12 [Example 125, HCl salt]", "=", 5.40],
  ["COC(=O)c1ccc(NC(=O)c2cc3c(C)nn(C4CCCCC4)c3s2)cn1", "=", 5.26],
  ["CNC1CCN(c2ccc(NC(=O)c3cc4c(C)nn(C5CCCCC5)c4s3)cc2F)CC1", "=", 6.05],
  ["CCNC(=O)c1ccc(NC(=O)c2cc3c(C)nn(C4CCCCC4)c3s2)cc1", "=", 4.52],
  ["CCN1C(=O)CN(CCNC(=O)c2cc3c(C)nn(C4CCCCC4)c3s2)C1=O", "=", 4.82],
  ["COc1cc(NC(=O)c2cc3c(C)nn(C4CCCCCC4)c3s2)ccc1NC(C)=O", "=", 5.82],
  ["Cc1nn(C2CCCCC2)c2sc(C(=O)N[C@H]3CC[C@H](C(=O)N4CCOCC4)CC3)cc12", "=", 5.57],
  ["CC(=O)Nc1ccc(NC(=O)c2cc3c(C)nn(C4CCCCCC4)c3s2)cc1", "<", 4.52],
  ["CCC(=O)N1CCc2cc(NC(=O)c3cc4c(C)nn(C5CCCCC5)c4s3)ccc21", "=", 5.60],
  ["CCN1CCN([C@H]2CC[C@H](NC(=O)c3cc4c(C)nn(C5CCOCC5)c4s3)CC2)CC1=O", "=", 5.14]
]}
